target: Voltage-gated inwardly rectifying potassium channel KCNH2 (Homo sapiens, UniProt Q12809); test: Inhibition of fluorescently labelled tracer binding to human ERG by competitive binding assay
Sequence (Q12809 whole entry): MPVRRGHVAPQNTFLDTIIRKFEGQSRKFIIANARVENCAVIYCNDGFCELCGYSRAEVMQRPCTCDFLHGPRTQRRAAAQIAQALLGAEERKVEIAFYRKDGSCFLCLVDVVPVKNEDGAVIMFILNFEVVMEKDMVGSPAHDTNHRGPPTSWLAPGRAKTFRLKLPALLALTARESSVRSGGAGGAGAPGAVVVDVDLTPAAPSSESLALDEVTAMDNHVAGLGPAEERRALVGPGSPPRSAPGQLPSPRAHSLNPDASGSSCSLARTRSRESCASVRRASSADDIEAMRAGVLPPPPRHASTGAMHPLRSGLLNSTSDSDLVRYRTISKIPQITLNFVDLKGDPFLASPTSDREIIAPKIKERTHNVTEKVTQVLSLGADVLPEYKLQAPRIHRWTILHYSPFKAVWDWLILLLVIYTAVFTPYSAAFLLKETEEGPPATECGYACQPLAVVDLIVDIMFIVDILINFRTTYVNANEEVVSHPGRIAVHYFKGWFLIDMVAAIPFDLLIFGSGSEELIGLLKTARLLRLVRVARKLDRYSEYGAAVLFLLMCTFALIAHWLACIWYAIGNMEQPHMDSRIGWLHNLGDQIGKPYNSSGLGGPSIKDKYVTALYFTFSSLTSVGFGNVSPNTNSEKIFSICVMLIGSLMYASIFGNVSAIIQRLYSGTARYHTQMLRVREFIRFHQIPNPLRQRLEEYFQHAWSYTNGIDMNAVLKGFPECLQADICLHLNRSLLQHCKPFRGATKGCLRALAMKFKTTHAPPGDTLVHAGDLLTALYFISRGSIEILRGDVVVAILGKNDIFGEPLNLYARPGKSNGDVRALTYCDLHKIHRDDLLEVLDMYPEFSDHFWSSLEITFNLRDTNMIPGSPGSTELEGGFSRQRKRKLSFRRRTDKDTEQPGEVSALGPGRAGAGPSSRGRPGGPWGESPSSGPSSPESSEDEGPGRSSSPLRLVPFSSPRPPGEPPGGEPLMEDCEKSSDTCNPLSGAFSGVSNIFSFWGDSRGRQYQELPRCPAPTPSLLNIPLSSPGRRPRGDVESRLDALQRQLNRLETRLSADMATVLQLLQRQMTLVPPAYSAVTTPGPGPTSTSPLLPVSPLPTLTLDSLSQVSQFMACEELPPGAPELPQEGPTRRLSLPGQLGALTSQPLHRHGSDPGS
Measured Metric: pEC50
In simple prose, pEC50 is minus the logarithm base ten of a concentration in moles per litre.

Input line: State recorded pEC50 with Voltage-gated inwardly rectifying potassium channel KCNH2 (Homo sapiens, UniProt Q12809), entry COc1nc(OC)c([C@@H](c2ccccc2)[C@@](O)(CCN(C)C)c2cccc3ccccc23)cc1-c1ccc(C#N)cc1 , no comment.
Output line: 5.82
